Origin of the recorded values: the supplement of paper PMC9170038

Please provide measured apparent KD of MS2 coat protein for the entries that follow.
tested on: MS2 coat protein; experiment: apparent KD of MS2 coat protein; designed switch direction (-1 OFF switch, 1 ON switch): -1; higher = weaker reporter binding; details: input ligand: none
Just the number in µM, nothing appended.

Query :: Fill in apparent KD of MS2 coat protein for UAUCUACAUGUAGGAUAUGCGUGGCGAAGCUAUGCAGAAGGACAUGAGGAUCACCCAUGUUUUAGCGUCUGCGUACAGAUGCGU [JL ENG1 1.48] (Eterna round: R96, puzzle: Exclusion NG 1) tested with MS2 coat protein.
Result :: 0.0232

Query :: State the measured apparent KD of MS2 coat protein (MS2 coat protein) of UUAAAUCAUGUAGGAUAUGCGUGGAGAAGCUAUGCAGAAGGACAUGAGGAUCACCCAUGUGCUUCCGUCUGAGAACAGACGGUA [Mat - Exclusion NG 1 - Mod of JL - D13] (Eterna round: R96, puzzle: Exclusion NG 1)
Result :: 0.0457

Query :: Jot down apparent KD of MS2 coat protein (MS2 coat protein) of AUCAGCUCGUCAGGAUAUAUUAACAUGAGGAUCACCCAUGUAAGAUCAGGCUUCGGCCAAUGUUAAUAGAAGGGACGAGCUGAU [ENG2/12-B2] (Eterna round: R96, puzzle: Exclusion NG 2) .
Result :: 0.133

Query :: State the measured apparent KD of MS2 coat protein (MS2 coat protein) of UGUUUAUAUGAAGGAUAUACUUAACAUGAGGAUCACCCAUGUGGUGUUGUGAGUGAGUGAGUUUAGUAGAAGGUCAAUUCUUUU [JMF's solution 97] (Eterna round: R96, puzzle: Exclusion NG 2)
Result :: 0.425

Query :: Give apparent KD of MS2 coat protein only, for GCUGGUCGAGGAUAUACAAUCGUGCUUCGGCACGUAAGGUCACAUGAGGAUCACCCAUGUAGAAGGUGACCAGC [E2/2-B1] (Eterna round: R97, puzzle: Exclusion 2) , using MS2 coat protein data.
Result :: 0.0207

----------
system: MS2 coat protein; experiment: apparent KD of MS2 coat protein; designed switch direction (-1 OFF switch, 1 ON switch): -1; higher = weaker reporter binding; conditions: input ligand: none
Give apparent KD of MS2 coat protein for every item shown.
Reply with just the number (in nM).

Query :: Report apparent KD of MS2 coat protein for UGUUGUUACGCAGGAUAUGAGGAUCACCCAUAUUAGGAUAUCGAAAGAGAAGUUCUGAGGAUCACCCAGAAGGGCGGGUUAACA [pwkr exNG2 2xF5 2xFMN.35] (Eterna round: R96, puzzle: Exclusion NG 2)
Result :: 53.2

Query :: Query apparent KD of MS2 coat protein for GGCCCGGGAGGAUAUACAUGAGGAUCACCCAUGUUGAAGUUGAAGAUCUUCGGCUUCGGUAGAAGGCCCGGGCC [-35, -32.8 kcal, 23% A, 3, 0] (Eterna round: R97, puzzle: Exclusion 3)
Result :: 13.6

Query :: Complete the entry with apparent KD of MS2 coat protein for GCGGUACAUGAGGAUCACCCAUGUCAGGAUAUCCGCUGUUUGUUAAUAAACAAGCGGUGGAGAAGGGACUUCGC [-26.2, -25.5 kcal, 27% A] (Eterna round: R97, puzzle: Exclusion 1)
Result :: 31.5

Query :: Answer with reported apparent KD of MS2 coat protein of CUCCUGCGAGGAUAUACAUAGUGACGUCUGUUUAAUCUUAAACAUGAGGAUCACCCAUGUAGAAGGUGCGUCAC [EX2 #82] (Eterna round: R97, puzzle: Exclusion 2)
Result :: 13.2

Query :: Provide apparent KD of MS2 coat protein value for the following sequence: AUAAUGUCAGGAUAUCAGUCGACUAGCGAUAGCUAGUCGACUGAGAAGGGACAUGAGGAUCACCCAUGUGUUUC [E4/14-A4] (Eterna round: R97, puzzle: Exclusion 4)
Result :: 170

----------
test system: MS2 coat protein; test: apparent KD of MS2 coat protein; designed switch direction (-1 OFF switch, 1 ON switch): -1; higher = weaker reporter binding; details: input ligand: microRNA oligo, concentration not stated
endpoint.name: apparent KD of MS2 coat protein (nM)
// units = nM; emit number, no label

Query :: Quickly give me recorded apparent KD of MS2 coat protein for CACUGCAGGUUAGGAUAUGGACAACAACAUGAGGAUCACCCAUGUAUGUAUGAACAUGUUGAUCACCAGAAGGAACACAUCAGU [Exclusion NG 2 S2] (Eterna round: R96, puzzle: Exclusion NG 2)
Result :: 9.35

Query :: Determine its reported apparent KD of MS2 coat protein: AUUGAUAGCACAGGAUAUUGAGAUUUGAAUUGACAAGAAGGGUGUACAUGAGGAUCACCCAUGUAAUGGGAGAGUGGUUGAUUA [JR_ExcNG1_Sub002] (Eterna round: R96, puzzle: Exclusion NG 1)
Result :: 324

Query :: Look up and state reported apparent KD of MS2 coat protein for CAGUACUGAGGAUAUACAUGAGGAUCACCCAUGUGUUCCAGCGAGGAAACUAGCAAAAGUAGAAGGCAGUACUG [salish99_ex3_r3_077] (Eterna round: R96, puzzle: Exclusion 3)
Result :: 15.6

Query :: Please indicate apparent KD of MS2 coat protein recorded for AUUGUUUAUGUAGGAUAUGCCUGGCGUGCCUUCGCAGAAGGACAUGAGGAUCACCCAUGUAUUGCGGUCUGCGUUCAGAUCGCU [salish99_ExNG1_r4_025] (Eterna round: R96, puzzle: Exclusion NG 1)
Result :: 30.6

Query :: Could you please provide reported apparent KD of MS2 coat protein for UCUCGCGGGCAAGGAUAUCCUACGUUGUUCUGGCCCGUGUAUGUUACAUGAGGAUCACCCAUGUGGGAGAAGGUGCACCAGGGC [Design 39] (Eterna round: R96, puzzle: Exclusion NG 2) ? Thanks!
Result :: 43.8

Query :: Return the recorded apparent KD of MS2 coat protein value; entry: CUUGUUUAUGUAGGAUAUGCCUGGCGUGCCUUUGCAGAAGGACAUGAGGAUCACCCAUGUAACAUGAGGCUCACCCAUGUCGCC [salish99_ExNG1_r04_107] (Eterna round: R96, puzzle: Exclusion NG 1)
Result :: 94.8

Query :: Look up and state reported apparent KD of MS2 coat protein for GCACGGAGUGUAGGAUAUCUGUGCGAUUAGCUCAGAGAAGGACACAUGAGGAUCACCCAUGUGUACCUCAACACUAAUCCGUGC [Eli exng1 - 076] (Eterna round: R96, puzzle: Exclusion NG 1)
Result :: 8.88

Query :: In one line, give reported apparent KD of MS2 coat protein of the entry AGUACUAACACGUGAGUGUUAGUACAAUAAGCUUGUGAAACAUGAGGAUCACCCAUGUCCUCAUAAGCUCGUCUUAU [salish99_TOv2_r3_061] (Eterna round: R96, puzzle: Sensor v3, turn-off variant 2) .
Result :: 496

Query :: Specify apparent KD of MS2 coat protein for UAUAUAUAGUAAGGAUAUGUAUUUAUGUUAUAAACAGAAGGUACUGACAUGAGGAUCACCCAUGUUUUAGUGUGGGCAUGUAGA [JMF's solution 16] (Eterna round: R96, puzzle: Exclusion NG 1) and stop.
Result :: 76.3

Query :: Give apparent KD of MS2 coat protein for UUGGUUGUGGUAGGAUAUCCGUUGGAAACUGUUGGAGAAGGACCACAGUCACUGGGUCCUUGUUUGGUGGAGUGGAAGAACCAU [pwkr exNG1 F6.16] (Eterna round: R96, puzzle: Exclusion NG 1)
Result :: 294

Query :: Identify the reported apparent KD of MS2 coat protein for the following entry. AGCUGUGGCCGAGGAUAUCUGAAACUCAAAACCGAAAUAUAAUCGGACAUGAGGAUCACCCAUGUAGAGAAGGCGGUCUCAGCA [Eli eng2 - 079] (Eterna round: R96, puzzle: Exclusion NG 2)
Result :: 126

Query :: Provide measured apparent KD of MS2 coat protein value, entry: UUAAUUAAUUUAUUAGAUCCUCACAUGAGGAUCACCCAUGUGCAGGAUAUCAGCUCGUGUAGAGCUGAGAAGGGCACUAUAAAU [ExNG3/10-B3] (Eterna round: R96, puzzle: Exclusion NG 3)
Result :: 61.5

Query :: Tell me its apparent KD of MS2 coat protein given GGCUUGCUAGUAGGAUAUCGCUUGUACAUGAGGAUCACCCAUGUGUGAUAUGCCUACAUAGUGCGUGAGAAGGACUGCAAGCCG [Diatdiinin] (Eterna round: R96, puzzle: Exclusion NG 2) as the entry.
Result :: 8.15

Query :: Tell me measured apparent KD of MS2 coat protein for UCGCUCCGUGUAGGAUAUCGCUGUAUGAUGCGGCGAGAAGGACAUGAGGAUCACCCAUGUAUGUUAUUAUCACGCGUGGCGCAA [Design 64] (Eterna round: R96, puzzle: Exclusion NG 1) please.
Result :: 11.6

Query :: Return value of apparent KD of MS2 coat protein for input CGCGCGCGUGUAGGAUAUGUGUUUGGUUCGGGCGCAGAAGGACAUGAGGAUCACCCAUGUGUGUGUGUGCGCGCAGUGUGUGCG [-30, -27 kcal, 15% A] (Eterna round: R96, puzzle: Exclusion NG 1) , no commentary.
Result :: 32.7

Query :: Given UUUGUUUAUGUAGGAUAUGCCUGGCGUGCCUUUGCAGAAGGACAUGAGGAUCACCCAUGUAACAUGAGGCUCACCCAUGUCGCC [salish99_ExNG1_r04_113] (Eterna round: R96, puzzle: Exclusion NG 1) , respond with its apparent KD of MS2 coat protein.
Result :: 91.6

Query :: Name the recorded apparent KD of MS2 coat protein of the sequence listed here: UAAGUUUACCGAGGAUAUGGUUUUUCCUAUUAACCAGAAGGCGGACUCAACAUGAGGAUCACCCAUGUAUAAAGGGUAUUAGGU [JR_ExcNG1_Sub044] (Eterna round: R96, puzzle: Exclusion NG 1)
Result :: 68

Query :: Let me know recorded apparent KD of MS2 coat protein for AUUUAAUUUAGCGAGAUCACAUGAGGAUCACCCAUGUAUAUAUAGGAUAUCAGCUCGUGUAGAGCUGAGAAGGAUAUAUACCGC [ExNG3/7-A3] (Eterna round: R96, puzzle: Exclusion NG 3) , thanks.
Result :: 72.5
